Where do the numbers come from? From patent EP4631938A1.

Examples of compounds with documented pKi follow.
Biological target: human recombinant 5-HT2A receptor (Homo sapiens, UniProt P28223)
Construct: expressed in transfected cells; host or cells: Jump-In HEK cells (membrane preparation)
Sequence (P28223 whole entry): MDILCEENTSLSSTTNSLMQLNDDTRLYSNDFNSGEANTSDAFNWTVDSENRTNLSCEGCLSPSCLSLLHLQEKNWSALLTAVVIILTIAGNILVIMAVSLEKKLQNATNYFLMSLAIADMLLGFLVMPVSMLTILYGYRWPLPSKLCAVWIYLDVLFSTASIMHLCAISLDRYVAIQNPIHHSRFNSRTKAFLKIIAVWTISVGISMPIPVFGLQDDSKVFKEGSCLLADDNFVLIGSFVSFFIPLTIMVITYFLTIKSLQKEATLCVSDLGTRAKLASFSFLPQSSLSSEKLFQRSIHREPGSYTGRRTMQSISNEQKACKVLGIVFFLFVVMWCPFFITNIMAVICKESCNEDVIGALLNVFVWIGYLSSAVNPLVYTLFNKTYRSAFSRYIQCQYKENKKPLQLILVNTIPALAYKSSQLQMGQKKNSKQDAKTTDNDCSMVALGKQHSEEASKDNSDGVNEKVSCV
Test: Test Example 1-2: 5-HT2A receptor binding inhibition test ([3H]-Ketanserin; non-specific ligand Ketanserin)
Settings: [3H]-Ketanserin; non-specific binding with 500 µmol/L Ketanserin; room temperature (25°C), 1.5 hours; read-out: h 5-HT2A Ki
Recall that pKi is obtained by taking minus log10 of the concentration measured in molar.

Completed entries (count: 6):
| Compound | Observation Type | Result Value |
| --- | --- | --- |
| CCc1nc(C)c(-c2cc(Nc3ncc(C(F)(F)F)cc3Cl)ncc2OCCO)c(C)n1 | pKi | 9.00 |
| Cc1cnn(C)c1-c1nc(Nc2ccc(C(F)(F)F)cc2)c(F)cc1OCCO | pKi | 9.57 |
| Cn1ncc(Br)c1-c1nc(Nc2cnc(C(F)(F)F)nc2)c(F)cc1OCCO | pKi | 9.10 |
| COCc1nc(C)c(-c2cc(Nc3ncc(-c4ccc(F)cc4)cc3F)ncc2OCCO)c(C)n1 | pKi | 9.49 |
| Cn1ncc(Br)c1-c1cc(Nc2nc3ccc(F)cc3s2)ccc1OCCO | pKi | 9.52 |
| COCc1nc(C)c(-c2cc(Nc3ncc(OC4CC(F)(F)C4)cc3Cl)ncc2OCCO)c(C)n1 | pKi | 8.25 |

**Query** Input `Cn1ncc(Br)c1-c1nc(Nc2ccc(C(F)(F)F)cc2)c(F)cc1OCCO` , output reported pKi.
**Result** 9.87

**Query** Consider the compound `COCc1nc(C)c(-c2cc(Nc3ncc(-c4cnn(C(F)F)c4)cc3Cl)ncc2OCCO)c(C)n1` and give its recorded pKi.
**Result** 8.13

---

Recorded Ki values for a group of compounds are listed next.
Biological target: human recombinant 5-HT2A receptor (Homo sapiens, UniProt P28223)
Construct: expressed in transfected cells; host or cells: Jump-In HEK cells (membrane preparation)
Test: Test Example 1-2: 5-HT2A receptor binding inhibition test ([3H]-Ketanserin; non-specific ligand Ketanserin)
Conditions: [3H]-Ketanserin; non-specific binding with 500 µmol/L Ketanserin; room temperature (25°C), 1.5 hours; read-out: h 5-HT2A Ki
Answer with a number only, understood to be in nM.

**Query** Dear colleague, please send me the reported Ki for `Cc1nc(N2CCCC2=O)nc(C)c1-c1cc(Nc2ncc(C(F)(F)F)cc2Cl)ncc1OCCO` when you can.
**Result** 4.48

---

# maps each entry to its pKi
Target: human recombinant 5-HT2C receptor (Homo sapiens, UniProt P28335)
Construct: expressed in transfected cells; host or cells: Jump-In HEK cells (membrane preparation)
Sequence (P28335 33-458): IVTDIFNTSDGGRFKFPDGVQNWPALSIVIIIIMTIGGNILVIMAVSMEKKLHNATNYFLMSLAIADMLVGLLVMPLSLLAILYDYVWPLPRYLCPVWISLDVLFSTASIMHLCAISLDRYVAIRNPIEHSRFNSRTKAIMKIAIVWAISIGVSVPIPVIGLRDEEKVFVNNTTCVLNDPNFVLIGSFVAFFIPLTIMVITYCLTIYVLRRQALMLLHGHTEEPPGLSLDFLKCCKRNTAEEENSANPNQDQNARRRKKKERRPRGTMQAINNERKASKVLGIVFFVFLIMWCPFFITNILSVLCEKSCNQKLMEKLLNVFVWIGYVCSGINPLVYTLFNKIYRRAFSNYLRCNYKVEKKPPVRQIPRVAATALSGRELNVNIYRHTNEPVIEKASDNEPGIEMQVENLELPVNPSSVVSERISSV
Assay: Test Example 2: 5-HT2C receptor binding inhibition test ([3H]-Mesulergine; non-specific ligand Serotonin HCl)
Details: human serotonin 5-HT2C receptor binding activity
In plain terms, pKi is the concentration in mol/L turned into minus its base-10 logarithm.

The examples below pair each entry with its known result.
| Compound | Observation Type | Result Value |
| --- | --- | --- |
| Cc1nc(C)c(-c2cc(Nc3ncc(OC(F)(F)F)cc3F)ncc2OCCO)c(C)n1 | pKi | 8.14 |
| Cc1nc(OCC2COC2)nc(C)c1-c1cc(Nc2ncc(C(F)(F)F)cc2Cl)ncc1OCCO | pKi | 8.20 |
| COCc1nc(C)c(-c2cc(Nc3ncc(-c4ccc(C(F)F)cc4)cc3Cl)ncc2OCCO)c(C)n1 | pKi | 9.47 |
| Cn1ncc(Cl)c1-c1cc(Nc2ncc(OCC(F)F)cc2F)ncc1OCCO | pKi | 8.44 |
| Cc1nc(C)c(-c2cc(Nc3ncc(-c4ccc(F)cc4)cc3C)ncc2OCCO)c(C)n1 | pKi | 8.98 |

**Query** Return pKi (reported value) for this compound: `Cn1ncc(Cl)c1-c1cc(Nc2ccc(OCC(F)F)cn2)ncc1OCCO`
**Result** 8.10

**Query** Give the reported pKi for this compound. `COCc1nc(C)c(-c2nc(Nc3ccc(C(F)(F)F)c(OC)n3)c(F)cc2OCCO)c(C)n1`
**Result** 8.67

**Query** Identify the reported pKi for the following entry. `Cn1ncc(Br)c1-c1nc(Nc2ccc(C(F)(F)F)cc2)c(F)cc1OCCO`
**Result** 9.57
